Origin of the recorded values: patent US20100267561A1

System: downy bromegrass (Bromus tectorum)
Assay Protocol: Test C pre-/postemergence plant response
Format: in vivo
Protocol Conditions: Preemergence, 16 g ai/ha; scale 0 to 100 (0 no effect, 100 complete control)
Reported Property: Plant response rating, Bromegrass, Downy
No unit in the answer, please; the number alone is enough.

Reference set (3 entries):
INSERT INTO measurements (molecule, reported) VALUES
  ('CCc1cc(-c2ccc(Cl)cc2)nn1-c1c(O)cnn(C)c1=O [Compound 21]', 40),
  ('Cc1cc(-c2ccc(Cl)cc2)nn1-c1c(OC(=O)c2cccs2)cnn(C)c1=O [Compound 52]', 0),
  ('Cc1nn(C)c(=O)c(-n2nc(-c3ccc(Cl)cc3)cc2C)c1O [Compound 15]', 20);

# evaluate next
Which Plant response rating, Bromegrass, Downy value belongs to Cc1cc(-c2ccc(C(F)(F)F)c(F)c2)nn1-c1c(O)c(C(F)(F)F)nn(C)c1=O [Compound 44] ? 20

* * *

Tested on: giant foxtail (Setaria faberii)
Assay Protocol: Test B pre-/postemergence plant response
Format: in vivo
Protocol Conditions: Preemergence, 16 g ai/ha; scale 0 to 100 (0 no effect, 100 complete control)
Reported Property: Plant response rating, Foxtail, Giant
No unit in the answer, please; the number alone is enough.

INSERT INTO assay_data (mol, measured_target, reported_property, reported) VALUES
  ('Cc1cc(-c2ccc(C(F)(F)F)cc2)nn1-c1c(O)c(C(C)C)nn(C)c1=O', 'giant foxtail (Setaria faberii)', 'Plant response rating, Foxtail, Giant', 0);

Which Plant response rating, Foxtail, Giant value belongs to Cc1cc(-c2ccc(Cl)cc2)nn1-c1c(OC(=O)CC(C)C)cnn(C)c1=O ? 100

One more molecule: Cc1cc(-c2ccc(Cl)cc2)nn1-c1c(OS(=O)(=O)c2ccccc2)cnn(C)c1=O 100

One more molecule: Cc1ccc(-c2ccc(Cl)cc2)cc1-c1c(O)cnn(C)c1=O 15

One more molecule: Cc1cc(-c2ccc(Cl)cc2)nn1-c1c(OC(=O)c2ccccc2Cl)cnn(C)c1=O 98

* * *

System: winter wheat (Triticum aestivum)
Assay Protocol: Test C pre-/postemergence plant response
Type: in vivo
Protocol Conditions: Preemergence, 31 g ai/ha; scale 0 to 100 (0 no effect, 100 complete control)
# Plant response rating, Wheat, Winter listing for each entry below
No unit in the answer, please; the number alone is enough.

INSERT INTO results (molecule, reported_property, reported) VALUES
  ('Cc1cc(-c2ccc(Cl)cc2)nn1-c1c(OS(=O)(=O)c2ccc(Cl)s2)cnn(C)c1=O [Compound 55]', 'Plant response rating, Wheat, Winter', 0),
  ('Cc1cc(-c2ccc(Cl)cc2)nn1-c1c(OS(=O)(=O)c2ccccc2)cnn(C)c1=O [Compound 35]', 'Plant response rating, Wheat, Winter', 25),
  ('Cc1cc(-c2ccc(Cl)cc2)nn1-c1c(OC(=O)Oc2ccccc2)cnn(C)c1=O [Compound 54]', 'Plant response rating, Wheat, Winter', 35);

Which Plant response rating, Wheat, Winter value belongs to CCc1cc(-c2ccc(Cl)cc2)nn1-c1c(O)cnn(C)c1=O [Compound 21] ? 60

* * *

Tested on: canarygrass (Phalaris minor)
Assay Protocol: Test B postemergence plant response
Assay type: in vivo
Protocol Conditions: Postemergence, 62 g ai/ha; scale 0 to 100, 0 no effect, 100 complete control
Reported Property: Plant response rating, Canarygrass
No unit in the answer, please; the number alone is enough.

INSERT INTO assay_data (mol, reported) VALUES
  ('Cc1cc(-c2ccc(Cl)cc2)nn1-c1c(OS(=O)(=O)c2ccccc2)cnn(C)c1=O', 45);

Which Plant response rating, Canarygrass value belongs to Cc1nn(C)c(=O)c(-n2nc(-c3ccc(Cl)cc3)cc2Cl)c1O ? 70

One more compound: Cn1ncc(O)c(-n2nc(-c3ccc(Cl)cc3)cc2C2CC2)c1=O 0

One more compound: CCc1cc(-c2ccc(Br)cc2)nn1-c1c(O)c(C)nn(C)c1=O 100

One more compound: Cc1cc(-c2ccc(Cl)cc2)nn1-c1c(OC(=O)c2cccs2)cnn(C)c1=O 5
